Provide the recorded Plant response rating, Barnyardgrass for the entries that follow.
Tested on: barnyardgrass (Echinochloa crus-galli)
Assay Overview: Test A postemergence, barnyardgrass
Type: in vivo
Experimental Setup: 125 g ai/ha, visual injury, 0 to 100 scale (0 no effect, 100 complete control), approximately 10 days
Enter a number only.

stdin: Entry O=C1NCC(c2cccc(OCc3ccccc3)c2)C1C(=O)Nc1ccc(F)c(F)c1F (stereo not drawn) [Compound 66] : reported Plant response rating, Barnyardgrass = ?
stdout: 0

stdin: So what does the record say about Plant response rating, Barnyardgrass for O=C1NCC(c2cccc(Cn3ccc(C(F)(F)F)n3)c2)C1C(=O)Nc1ccc(F)c(F)c1F (stereo not drawn) [Compound 22] ?
stdout: 40

stdin: # Plant response rating, Barnyardgrass lookup, item O=C1NCC(c2ccccc2Cn2ccc(C(F)(F)F)n2)C1C(=O)Nc1ccc(F)c(F)c1F (stereo not drawn) [Compound 58]
stdout: 0

stdin: What value of Plant response rating, Barnyardgrass has been recorded for this entry: O=C1NCC(c2cccc(Oc3ccc(F)cn3)c2)C1C(=O)Nc1ccccc1F (single isomer, unassigned) [Compound 49]
stdout: 80

stdin: Look up Plant response rating, Barnyardgrass for this compound: O=C1NCC(c2cccc(COc3ccccc3)c2)C1C(=O)Nc1ccccc1F (stereo not drawn) [Compound 19]
stdout: 20

stdin: Look up Plant response rating, Barnyardgrass for this compound: CC1(COc2cccc(C3CNC(=O)C3C(=O)Nc3cccc(F)c3F)c2)COC1 (stereo not drawn) [Compound 13]
stdout: 0

stdin: Which measured Plant response rating, Barnyardgrass value corresponds to O=C1NCC(c2cccc(COc3ccccc3)c2)C1C(=O)Nc1cccc(F)c1F (stereo not drawn) [Compound 21] ?
stdout: 20

stdin: What value of measured Plant response rating, Barnyardgrass is listed for O=C1NCC(c2cccc(OCC3CC3)c2)C1C(=O)Nc1ccccc1F (stereo not drawn) [Compound 11] ?
stdout: 50

stdin: Value lookup for Plant response rating, Barnyardgrass; key = O=C1NCC(c2cccc(Cn3cncn3)c2)C1C(=O)Nc1cccc(F)c1F (stereo not drawn) [Compound 32]
stdout: 0

stdin: Name the recorded Plant response rating, Barnyardgrass for O=C1NCC(c2cccc(Cn3cccn3)c2)C1C(=O)Nc1cccc(F)c1F (stereo not drawn) [Compound 30] .
stdout: 20

stdin: Which value of Plant response rating, Barnyardgrass has been reported for O=C1NCC(c2cccc(OCC3CC3)c2)C1C(=O)Nc1ccc(F)cc1F (stereo not drawn) [Compound 3] in the records?
stdout: 10

stdin: For the compound shown here, O=C1NCC(c2cccc(Cn3ccc(C(F)(F)F)n3)c2)C1C(=O)Nc1ccccc1F (stereo not drawn) [Compound 23] , give the reported Plant response rating, Barnyardgrass.
stdout: 0

stdin: Fill in: Plant response rating, Barnyardgrass of O=C1NCC(c2cccc(OCc3ccco3)c2)C1C(=O)Nc1ccccc1F (stereo not drawn) [Compound 10] is ___
stdout: 10

stdin: Need Plant response rating, Barnyardgrass, item O=C1NCC(c2cccc(Oc3ccc(C(F)(F)F)cn3)c2)C1C(=O)Nc1ccccc1F (single isomer, unassigned) [Compound 62]
stdout: 70

stdin: Fill blank: measured Plant response rating, Barnyardgrass of the compound CN(C)N=Cc1cccc(C2CN(C)C(=O)C2C(=O)Nc2ccccc2F)c1 (stereo not drawn) [Compound 54] is ____.
stdout: 0

stdin: Recorded Plant response rating, Barnyardgrass of O=C1NCC(c2cccc(OCc3ccccc3)c2)C1C(=O)Nc1ccc(F)cc1F (stereo not drawn) [Compound 64] , please.
stdout: 0

stdin: Requested field: Plant response rating, Barnyardgrass. Item: O=C1NCC(c2cccc(Oc3ncc(Cl)cn3)c2)C1C(=O)Nc1cccc(F)c1F (stereo not drawn) [Compound 56]
stdout: 0

stdin: Field request: Plant response rating, Barnyardgrass | item: O=C1NCC(c2cccc(OCc3ccco3)c2)C1C(=O)Nc1cccc(F)c1F (stereo not drawn) [Compound 9]
stdout: 30

stdin: Value lookup for Plant response rating, Barnyardgrass; key = CN1CC(c2cccc(Oc3ccc(F)cn3)c2)C(C(=O)Nc2cccc(F)c2C#N)C1=O (single isomer, unassigned) [Compound 89]
stdout: 70

stdin: Can you share its Plant response rating, Barnyardgrass? I mean this compound: O=C1NCC(c2cccc(OCc3ccccc3)c2)C1C(=O)Nc1ccccc1F (stereo not drawn) [Compound 63]
stdout: 0

stdin: What value of measured Plant response rating, Barnyardgrass is listed for O=C1NCC(c2cccc(Oc3ncc(F)cc3F)c2)C1C(=O)Nc1cccc(F)c1F (single isomer, unassigned) [Compound 71] ?
stdout: 70

stdin: GET /values?readout=Plant response rating, Barnyardgrass&item= CN1CC(c2cccc(Oc3ncc(F)cc3F)c2)C(C(=O)Nc2ccccc2F)C1=O (single isomer, unassigned) [Compound 72]
stdout: 90

stdin: Requested read-out: Plant response rating, Barnyardgrass. Entry: CON=Cc1cccc(C2CN(C)C(=O)C2C(=O)Nc2ccccc2F)c1 (stereo not drawn) [Compound 53]
stdout: 70

stdin: Any idea what Plant response rating, Barnyardgrass was measured for O=C1NCC(c2cccc(OCc3ccccc3)c2)C1C(=O)Nc1ccccc1Cl (stereo not drawn) [Compound 67] ?
stdout: 0

stdin: Which Plant response rating, Barnyardgrass value is on record for O=C1NCC(c2cccc(Cn3cccn3)c2)C1C(=O)Nc1ccc(F)c(F)c1F (stereo not drawn) [Compound 26] ?
stdout: 30

stdin: Name the recorded Plant response rating, Barnyardgrass for O=C1NCC(c2cccc(OCc3ccco3)c2)C1C(=O)Nc1ccccc1Cl (stereo not drawn) [Compound 1] .
stdout: 0

stdin: Recorded Plant response rating, Barnyardgrass for O=C1NCC(c2cccc(Oc3ccc(F)cn3)c2)C1C(=O)Nc1cccc(F)c1F (single isomer, unassigned) [Compound 52] , please?
stdout: 70
